We begin with a simple list: items and their reported pIC50.
# Measured Target: human TLR7 (Homo sapiens, UniProt Q9NYK1)
# Sequence (Q9NYK1 27-1049): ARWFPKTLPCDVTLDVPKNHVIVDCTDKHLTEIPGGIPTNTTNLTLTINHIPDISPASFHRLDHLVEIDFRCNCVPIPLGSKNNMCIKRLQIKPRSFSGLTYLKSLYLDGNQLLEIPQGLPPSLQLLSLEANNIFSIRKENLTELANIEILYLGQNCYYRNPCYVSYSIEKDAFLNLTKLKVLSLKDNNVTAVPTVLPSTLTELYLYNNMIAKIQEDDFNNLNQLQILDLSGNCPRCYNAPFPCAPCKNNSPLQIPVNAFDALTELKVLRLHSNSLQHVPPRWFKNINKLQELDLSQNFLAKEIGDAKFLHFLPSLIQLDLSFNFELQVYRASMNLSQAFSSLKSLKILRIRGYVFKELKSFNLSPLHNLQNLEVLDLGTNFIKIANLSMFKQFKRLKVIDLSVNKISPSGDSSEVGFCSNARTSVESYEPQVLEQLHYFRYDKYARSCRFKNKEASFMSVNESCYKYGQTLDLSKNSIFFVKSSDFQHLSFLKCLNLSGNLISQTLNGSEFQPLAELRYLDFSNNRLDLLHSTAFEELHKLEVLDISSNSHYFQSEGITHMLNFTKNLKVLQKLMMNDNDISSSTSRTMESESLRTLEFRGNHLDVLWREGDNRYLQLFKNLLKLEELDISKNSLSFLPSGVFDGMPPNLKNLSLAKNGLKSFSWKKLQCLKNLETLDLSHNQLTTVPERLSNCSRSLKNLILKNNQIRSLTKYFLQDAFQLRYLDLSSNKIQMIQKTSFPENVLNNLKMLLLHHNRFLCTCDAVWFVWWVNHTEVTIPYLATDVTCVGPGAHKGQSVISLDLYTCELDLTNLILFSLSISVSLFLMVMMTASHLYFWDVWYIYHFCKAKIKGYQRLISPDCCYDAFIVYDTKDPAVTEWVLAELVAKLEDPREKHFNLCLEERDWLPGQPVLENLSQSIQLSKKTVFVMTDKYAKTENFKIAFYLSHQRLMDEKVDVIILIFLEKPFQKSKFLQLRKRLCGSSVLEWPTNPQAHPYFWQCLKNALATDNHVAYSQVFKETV
# Test Method Notes: HEK293-Blue-hTLR-7 cells assay (SEAP reporter, R848 stimulation)
# Details: HEK293-Blue-hTLR7 cells, R848, 20 hrs; read-out: HEK/hTLR7 IC50
# log scale: pIC50 equals minus log10 of the concentration in mol/L

Previously resolved entries follow.
C[C@@H]1CN(c2ccc(C#N)c3ncccc23)C[C@H](CN2CCN(c3cccc(C4CNCCO4)c3)CC2)O1 (stereo partly drawn) ... 7.74
C[C@@H]1CN(c2ccc(C#N)n3ncc(F)c23)C[C@H](CN2CCN(c3ccc(C[C@@H]4CNCCO4)cc3)CC2)O1 ... 7.74

Please turn your attention to the following entry.
Qu. Consider the compound `Cc1cc(N2C[C@@H](N)[C@@H](F)C2)nc(N2CCN(C[C@H]3CN(c4ccc(C#N)c5nccnc45)C[C@@H](C)O3)CC2)n1` . State its measured pIC50.
Ans. 8.40

====

# Measured Target: hERG channel (Homo sapiens, UniProt Q12809)
# Construct: expressed in transfected cells; host or cells: CHO (Chinese hamster ovary)
# Sequence (Q12809 whole entry): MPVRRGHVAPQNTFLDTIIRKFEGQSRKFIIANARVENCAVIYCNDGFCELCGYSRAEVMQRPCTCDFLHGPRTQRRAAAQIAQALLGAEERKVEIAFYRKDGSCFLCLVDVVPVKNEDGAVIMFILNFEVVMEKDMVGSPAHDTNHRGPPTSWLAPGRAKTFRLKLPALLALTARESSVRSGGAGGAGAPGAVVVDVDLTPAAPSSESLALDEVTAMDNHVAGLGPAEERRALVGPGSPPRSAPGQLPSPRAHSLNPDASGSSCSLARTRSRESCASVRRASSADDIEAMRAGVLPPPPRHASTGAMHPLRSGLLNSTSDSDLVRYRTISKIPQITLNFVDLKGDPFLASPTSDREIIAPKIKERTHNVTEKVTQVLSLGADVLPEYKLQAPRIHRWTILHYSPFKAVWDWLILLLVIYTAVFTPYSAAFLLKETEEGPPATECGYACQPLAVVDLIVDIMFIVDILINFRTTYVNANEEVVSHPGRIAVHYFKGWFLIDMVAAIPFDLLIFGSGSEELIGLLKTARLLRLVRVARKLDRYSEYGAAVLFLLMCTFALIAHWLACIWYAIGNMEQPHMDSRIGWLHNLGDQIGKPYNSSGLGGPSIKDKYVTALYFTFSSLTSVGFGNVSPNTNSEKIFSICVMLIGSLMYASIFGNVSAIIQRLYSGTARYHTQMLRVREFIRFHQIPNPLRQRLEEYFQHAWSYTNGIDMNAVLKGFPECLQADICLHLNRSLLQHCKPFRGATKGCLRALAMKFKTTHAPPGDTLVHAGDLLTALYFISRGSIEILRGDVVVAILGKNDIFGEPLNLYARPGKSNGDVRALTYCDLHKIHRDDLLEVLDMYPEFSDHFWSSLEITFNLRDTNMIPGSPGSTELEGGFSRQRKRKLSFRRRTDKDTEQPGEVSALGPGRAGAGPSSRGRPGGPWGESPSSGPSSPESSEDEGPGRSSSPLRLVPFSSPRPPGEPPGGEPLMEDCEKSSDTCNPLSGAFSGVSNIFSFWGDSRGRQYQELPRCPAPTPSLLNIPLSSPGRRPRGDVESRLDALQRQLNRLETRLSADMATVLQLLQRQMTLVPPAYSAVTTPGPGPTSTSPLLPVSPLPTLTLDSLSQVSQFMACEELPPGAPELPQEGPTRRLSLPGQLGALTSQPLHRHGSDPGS
# Test Method Notes: hERG channel inhibition assay (patch-clamp, CHOhERG cells)
# Format: cell-based
# Details: safety ratio
Measurement Type: hERG IC20/TLR7 IC50

C[C@@H]1CN(c2ccc(C#N)c3ncccc23)C[C@H](CN2CCN(c3cncc(N4CCNCC4)c3)CC2)O1 ... >294
CO[C@@H]1CN(c2nccc(N3CCN(C[C@H]4CN(c5ccc(C#N)c6nccnc56)C[C@@H](C)O4)CC3)n2)C[C@H]1N ... >1666

Qu. Consider the compound `C[C@@H]1CN(c2ccc(C#N)c3nccnc23)C[C@H](CN2CCN(c3nccc(N4CC(N)C4)n3)CC2)O1` . State its measured hERG IC20/TLR7 IC50.
Ans. >2500

Qu. Consider the compound `CO[C@H]1CN(c2nccc(N3CCN(C[C@H]4CN(c5ccc(C#N)c6nccnc56)C[C@@H](C)O4)CC3)n2)C[C@@H]1N` . State its measured hERG IC20/TLR7 IC50.
Ans. 818

====

# Measured Target: human TLR7 (Homo sapiens, UniProt Q9NYK1)
# Test Method Notes: HEK293-Blue-hTLR-7 cells assay (SEAP reporter, R848 stimulation)
# Details: HEK293-Blue-hTLR7 cells, R848, 20 hrs; read-out: HEK/hTLR7 IC50
We begin with a simple list: items and their reported IC50.
The reply should be a number in nM, with the unit left off.

Previously resolved entries follow.
C[C@@H]1CN(c2ccc(C#N)c3ncccc23)C[C@H](CN2CCN(c3ncc(N4CCNCC4)cn3)CC2)O1 [Example 17] ... 31
Cc1ccc(N2C[C@H](CN3CCN(c4ccnc(N5C[C@H]6NCCO[C@@H]6C5)n4)CC3)O[C@H](C)C2)c2nccnc12 [Example 129] ... 20
C[C@@H]1CN(c2ccc(C#N)n3ncc(F)c23)C[C@H](CN2CCN(c3ccc(N4C[C@H]5NCCO[C@@H]5C4)nc3)CC2)O1 [Example 168] ... 20
C[C@@H]1CN(c2ccc(C#N)c3ncccc23)C[C@H](CN2CCN(c3ccnc(OCCN(C)C)n3)CC2)O1 [Example 30] ... 16
C[C@@H]1CN(c2ccc(C#N)c3ncccc23)C[C@H](CN2CCN(c3ncc(F)c(N4CCNCC4)n3)CC2)O1 [Example 94] ... 13

Please turn your attention to the following entry.
Qu. Consider the compound COC1CNCC1Nc1nc(C)cc(N2CCN(C[C@H]3CN(c4ccc(C#N)c5ncccc45)C[C@@H](C)O3)CC2)n1 (stereo in doubt) [Example 70] . State its measured IC50.
Ans. 70

====

# Measured Target: UniProt Q9NR96
# Test Method Notes: HEK293-Blue-hTLR-9 cells assay (SEAP reporter, ODN2006 stimulation)
# Format: cell-based
# Set-up: host or cells: HEK293 (HEK-Blue hTLR9)
# Details: HEK293-Blue-hTLR9 cells, ODN2006, 20 hrs; read-out: HEK/hTLR9 IC50
Measurement Type: pIC50
# log scale: pIC50 equals minus log10 of the concentration in mol/L

Previously resolved entries follow.
Cc1cc(N2CCN(C[C@H]3CN(c4ccc(C#N)n5ncc(F)c45)C[C@@H](C)O3)CC2)nc(N2CCNCC2)n1 ... 7.09
COc1cc(N2CCN(C[C@H]3CN(c4ccc(C#N)c5ncccc45)C[C@@H](C)O3)CC2)nc(N2CCNCC2)n1 ... 6.99
C[C@@H]1CN(c2ccc(C#N)n3ncc(F)c23)C[C@H](CN2CCN(c3ccc(N4CC5(CNCCO5)C4)nc3)CC2)O1 ... 7.11
C[C@@H]1CN(c2ccc(C#N)c3ncccc23)C[C@H](CN2CCN(c3ccnc(N4CCN[C@@H](CO)C4)n3)CC2)O1 ... 7.29

Qu. Consider the compound `Cc1cc(N2C[C@@H](N)[C@@H](F)C2)nc(N2CCN(C[C@H]3CN(c4ccc(C#N)c5nccnc45)C[C@@H](C)O3)CC2)n1` . State its measured pIC50.
Ans. 7.42

====

We begin with a simple list: items and their reported IC50.
# Measured Target: hTLR9 (Homo sapiens, UniProt Q9NR96)
# Sequence (Q9NR96 26-1032): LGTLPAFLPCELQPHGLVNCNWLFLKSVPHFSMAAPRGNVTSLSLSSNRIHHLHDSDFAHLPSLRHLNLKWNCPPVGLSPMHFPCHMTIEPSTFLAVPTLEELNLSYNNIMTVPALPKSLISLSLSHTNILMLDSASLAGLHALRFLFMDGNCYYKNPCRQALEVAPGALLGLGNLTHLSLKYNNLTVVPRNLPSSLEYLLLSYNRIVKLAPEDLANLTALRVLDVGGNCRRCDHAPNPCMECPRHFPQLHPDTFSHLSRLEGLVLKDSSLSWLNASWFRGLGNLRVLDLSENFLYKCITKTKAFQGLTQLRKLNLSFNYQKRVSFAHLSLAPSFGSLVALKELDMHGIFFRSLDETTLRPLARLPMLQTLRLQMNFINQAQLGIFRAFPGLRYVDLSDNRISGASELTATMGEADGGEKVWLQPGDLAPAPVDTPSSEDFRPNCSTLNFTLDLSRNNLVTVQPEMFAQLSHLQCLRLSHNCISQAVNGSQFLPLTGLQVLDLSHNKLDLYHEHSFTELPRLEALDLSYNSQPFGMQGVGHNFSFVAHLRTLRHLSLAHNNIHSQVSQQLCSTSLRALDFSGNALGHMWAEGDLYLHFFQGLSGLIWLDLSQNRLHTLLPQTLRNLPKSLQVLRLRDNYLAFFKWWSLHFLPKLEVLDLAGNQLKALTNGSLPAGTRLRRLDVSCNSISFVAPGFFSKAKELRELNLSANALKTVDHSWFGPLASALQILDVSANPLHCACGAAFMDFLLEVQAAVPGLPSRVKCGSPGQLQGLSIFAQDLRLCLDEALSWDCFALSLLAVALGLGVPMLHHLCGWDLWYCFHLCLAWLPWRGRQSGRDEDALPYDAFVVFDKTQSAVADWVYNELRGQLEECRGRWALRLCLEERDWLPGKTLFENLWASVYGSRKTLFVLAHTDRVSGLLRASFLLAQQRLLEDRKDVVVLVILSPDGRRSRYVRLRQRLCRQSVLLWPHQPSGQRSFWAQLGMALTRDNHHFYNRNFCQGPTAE
# Test Method Notes: HEK293-Blue-hTLR-9 cells assay (SEAP reporter, ODN2006 stimulation)
# Format: cell-based
# Parameters: host or cells: HEK293 (HEK-Blue hTLR9)
# Details: HEK293-Blue-hTLR9 cells, ODN2006, 20 hrs; read-out: HEK/hTLR9 IC50

Previously resolved entries follow.
C[C@@H]1CN(c2ccc(C#N)c3ncccc23)C[C@H](CN2CCN(c3ccc([C@@H]4CNCCO4)cc3)CC2)O1 ... 91 nM
Cc1cc(N2CCN(C[C@H]3CN(c4ccc(C#N)c5ncccc45)C[C@@H](C)O3)CC2)nc(N2C[C@@H](N)C[C@@H](F)C2)n1 ... 56 nM
Cc1ccc(N2C[C@H](CN3CCN(c4ccnc(N5C[C@H]6NCCO[C@@H]6C5)n4)CC3)O[C@H](C)C2)c2nccnc12 ... 171 nM

Qu. Report IC50 on hTLR9 (Homo sapiens, UniProt Q9NR96) for this entry: `C[C@@H]1CN(c2ccc(C#N)c3ncccc23)C[C@H](CN2CCN(c3ccnc(N4C[C@H]5NCCO[C@@H]5C4)n3)CC2)O1`
Ans. 100 nM

Qu. Report IC50 on hTLR9 (Homo sapiens, UniProt Q9NR96) for this entry: C[C@@H]1CN(c2ccc(C#N)c3ncccc23)C[C@H](CN2CCN(c3ccnc(N4CCNCC(O)C4)n3)CC2)O1 (stereo partly drawn)
Ans. 33 nM

Qu. Report IC50 on hTLR9 (Homo sapiens, UniProt Q9NR96) for this entry: `C[C@@H]1CN(c2ccc(C#N)c3nccnc23)C[C@H](CN2CCN(c3ccnc(N4CC[C@H](N)[C@H](F)C4)n3)CC2)O1`
Ans. 37 nM

====

# Measured Target: human TLR8 (Homo sapiens)
# Sequence (Q9NR97 27-1041): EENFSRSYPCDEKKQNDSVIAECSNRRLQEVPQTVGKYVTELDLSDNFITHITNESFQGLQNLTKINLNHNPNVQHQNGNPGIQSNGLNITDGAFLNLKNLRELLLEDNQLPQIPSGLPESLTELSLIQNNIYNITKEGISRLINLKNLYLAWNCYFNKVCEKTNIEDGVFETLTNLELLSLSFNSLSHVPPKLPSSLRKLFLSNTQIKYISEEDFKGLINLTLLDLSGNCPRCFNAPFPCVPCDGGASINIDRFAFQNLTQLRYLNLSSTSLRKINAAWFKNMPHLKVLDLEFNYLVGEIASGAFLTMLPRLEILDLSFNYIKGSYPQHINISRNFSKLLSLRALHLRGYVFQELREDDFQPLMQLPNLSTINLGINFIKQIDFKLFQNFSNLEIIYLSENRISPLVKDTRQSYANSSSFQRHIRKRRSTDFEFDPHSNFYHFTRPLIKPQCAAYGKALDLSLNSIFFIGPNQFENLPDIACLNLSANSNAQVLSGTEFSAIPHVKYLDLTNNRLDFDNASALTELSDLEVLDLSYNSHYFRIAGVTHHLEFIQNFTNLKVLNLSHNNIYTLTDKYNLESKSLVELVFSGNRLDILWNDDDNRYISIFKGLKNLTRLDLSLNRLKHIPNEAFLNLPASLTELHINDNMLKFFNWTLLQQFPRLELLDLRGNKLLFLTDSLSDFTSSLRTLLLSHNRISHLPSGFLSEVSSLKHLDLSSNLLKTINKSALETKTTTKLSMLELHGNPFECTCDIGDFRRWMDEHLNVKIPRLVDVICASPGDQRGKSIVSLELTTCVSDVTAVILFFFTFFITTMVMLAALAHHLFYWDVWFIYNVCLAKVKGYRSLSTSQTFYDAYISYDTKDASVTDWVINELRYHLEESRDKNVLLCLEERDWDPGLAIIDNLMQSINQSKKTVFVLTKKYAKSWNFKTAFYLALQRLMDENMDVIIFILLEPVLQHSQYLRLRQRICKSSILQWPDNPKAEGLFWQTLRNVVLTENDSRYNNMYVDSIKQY
# Test Method Notes: HEK293-Blue-hTLR-8 cells assay (SEAP reporter, R848 stimulation)
# Details: HEK293-Blue-hTLR8 cells, R848, 20 hrs; read-out: HEK/hTLR8 IC50
Measurement Type: pIC50
# log scale: pIC50 equals minus log10 of the concentration in mol/L

Previously resolved entries follow.
Cc1ccc(N2C[C@H](CN3CCN(c4ccnc(N5CCNCC5)n4)CC3)O[C@H](C)C2)c2nccnc12 [Example 117] ... 8.15
[2H]c1ccc2c(N3C[C@H](CN4CCN(c5ccc(N6CC7(CN(C)C7)C6)nc5)CC4)O[C@H](C)C3)ccc(C#N)c2n1 [Example 161] ... 8.10
Cc1cc(N2CCNCC2)nc(N2CCN(C[C@H]3CN(c4ccc(C#N)c5ncccc45)C[C@@H](C)O3)CC2)n1 [Example 68] ... 8.70

Qu. Consider the compound Cc1cc(N2CCN(C[C@H]3CN(c4ccc(C#N)c5ncccc45)C[C@@H](C)O3)CC2)nc(N[C@@H]2CNC[C@@H]2F)n1 [Example 71] . State its measured pIC50.
Ans. 7.82

Qu. Consider the compound C[C@@H]1CN(c2ccc(C#N)n3ncc(F)c23)C[C@H](CN2CCN(c3ccc(C4CNCCO4)cc3F)CC2)O1 (stereo in doubt) [Example 183] . State its measured pIC50.
Ans. 7.89

Qu. Consider the compound Cc1ccc(N2C[C@H](CN3CCN(c4ccnc(N5CC6(CNCCO6)C5)n4)CC3)O[C@H](C)C2)c2nccnc12 [Example 126] . State its measured pIC50.
Ans. 8.22

Qu. Consider the compound C[C@@H]1CN(c2ccc(C#N)n3ncc(F)c23)C[C@H](CN2CCN(c3ccc(N4CCOC5(CNC5)C4)nc3)CC2)O1 [Example 178] . State its measured pIC50.
Ans. 7.04

Qu. Consider the compound [2H]c1ccc2c(N3C[C@H](CN4CCN(c5nc(C)cc(N6CC(N)C6)n5)CC4)O[C@H](C)C3)ccc(C#N)c2n1 [Example 136] . State its measured pIC50.
Ans. 9.00
